testName: Inhibition of wild type influenza A virus H5N1 (A/chicken/Hubei/327/2004) matrix protein 2 transfected in yeast assessed as yeast growth restoration measured after 46 to 48 hrs
attributeMeasured: EC50 (nM)
Answers are plain numbers, in nM.

# moleculeSmiles, EC50, nM
measured = [
    ("Cc1cc(CNS(=O)(=O)c2ccc(C#N)cc2)c(C)s1", 1400),
]

For each of the items listed, what is its EC50?
1. Cc1cc(CNS(=O)(=O)c2ccc([N+](=O)[O-])cc2)c(C)s1
2. Cc1cc(CNS(=O)(=O)c2ccc(Cl)cc2)c(C)s1
3. O=[N+]([O-])c1ccc(S(=O)(=O)NCc2csc3ccccc23)cc1
4. Cc1cc(CNS(=O)(=O)c2ccc([N+](=O)[O-])cc2)c(C)o1
5. Cc1cc(CNS(=O)(=O)c2ccc(Br)cc2)c(C)s1

Result string:
[2210, 1080, 3440, 1710, 1580]

Query string: Reported EC50, compound `Cc1cc(CNS(=O)(=O)c2ccc(Cl)cc2)c(C)o1` : ____
Result string: 3070

The origin of these recorded values is BindingDB's records for PubMed 38330869.
